Overview of recorded inhibition for various compounds
biological target: Hexose transporter 1 (Plasmodium falciparum) (UniProt O97467); assay: ST_JUDE_LEISH: Cytotoxicity at 2uM final concentration against transgenic Leishmania Mexicana promastigotes LmPfHT that are glucose transport deficient and complemented with the Plasmodium falciparum hexose transporter. Activity is measured by DNA content using SYBR green in vitro; type: functional
Give the value, in units of %, as a plain number.

COMPOUND | inhibition, %
N#CC(c1ccc(Br)cc1)c1ccc2c(C(F)(F)F)cc(C(F)(F)F)nc2n1 (configuration not stated) | 4.44

For record `CN1CCCN(c2ccnc3cc4c(cc23)N(C(=O)c2ccc(Cl)cc2Cl)CC4)CC1` the listed inhibition is 2.07

Reported inhibition of `c1ccc2[nH]c(-c3ccc(-c4ccc(CN5CCN(CCN6CCOCC6)CC5)cc4)cc3)nc2c1` : 12.4

Query `CN1CCCN(Cc2cccc(-c3cccc(NC(=O)c4cccc(C#N)c4)c3)c2)CC1` yields inhibition of 11.4

Query `N#Cc1ccc2[nH]cc(CN3CCC4(CC3)CN(CCNCc3ccccc3)C(=O)O4)c2c1` yields inhibition of 4.4

The compound identified as Cc1cccc2nc(-c3ccc(-c4ccc(CN5CCCCC5CO)cc4)cc3)[nH]c12 (configuration not stated) registered its inhibition at 31.6

Record summary for `CCN(CCCN1CCCC1)c1cc(C)nc(Nc2ccc(Cl)cc2)n1` : reported inhibition = 1.37

Record `COc1ccccc1CCNc1nc(C)cc(N[C@@H](Cc2ccccc2)C(=O)NCCOc2ccccc2)n1` , field inhibition: 1.1
